# ASSAY_INFO: self-splicing fitness, log relative to wild type (ln ratio); higher = more splicing; Tetrahymena group I intron in knt gene, E. coli kanamycin selection, DiMSum; sequences stand for … in CUCUCU…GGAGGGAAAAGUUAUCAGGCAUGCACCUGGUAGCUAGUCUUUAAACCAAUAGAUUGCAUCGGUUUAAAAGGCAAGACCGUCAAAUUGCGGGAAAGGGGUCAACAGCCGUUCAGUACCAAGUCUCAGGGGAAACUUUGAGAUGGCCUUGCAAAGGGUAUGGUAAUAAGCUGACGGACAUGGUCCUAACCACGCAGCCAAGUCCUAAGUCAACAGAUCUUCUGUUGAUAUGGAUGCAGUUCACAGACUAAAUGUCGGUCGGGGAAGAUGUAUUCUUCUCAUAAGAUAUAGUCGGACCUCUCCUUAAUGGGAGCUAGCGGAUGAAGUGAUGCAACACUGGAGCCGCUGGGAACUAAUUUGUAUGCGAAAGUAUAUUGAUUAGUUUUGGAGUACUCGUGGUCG;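 further: selection with 25 µg/mL kanamycin versus none on LB agar overnight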
# RUN_PARAMETERS: 30 °C
Answer each item with its documented self-splicing fitness (ln).
No unit in the answer, only the number.

**Q:** Output self-splicing fitness (ln) of `GCUUAGCAAUAUUACGGAUA`
**A:** -2.7

**Q:** Consider the sequence `GAAAAGCAAUAUUACGCGUU` and give its recorded self-splicing fitness (ln).
**A:** -2.98

**Q:** Please look at this sequence and report its self-splicing fitness (ln): `GAGGAGCAAUAUUACGGUGC`
**A:** -3.87

**Q:** # return recorded self-splicing fitness (ln) for entry `GGAUAGCAAUAUUACGACGU`
**A:** -0.152

**Q:** Provide only the value of recorded self-splicing fitness (ln) for `AUCAAGCAAUAUUACGUGAG`
**A:** -0.619

**Q:** // Input: `AAUAAGCAAUAUUACGCUGC` . Output its self-splicing fitness (ln) only.
**A:** -3.69

**Q:** Identify the reported self-splicing fitness (ln) for the following entry. `CCUCAGCAAUAUUACGGGAG`
**A:** -3.4

**Q:** Dear colleague, please send me the reported self-splicing fitness (ln) for `UGGUAGCAAUAUUACGAUUU` when you can.
**A:** -1.14

**Q:** Write down self-splicing fitness (ln) measured for item `UGGCAGCAAUAUUACGGGAC`
**A:** -2.88

**Q:** Name the recorded self-splicing fitness (ln) of the sequence listed here: `GCUCAGCAAUAUUACGAUUA`
**A:** -0.516

**Q:** For the sequence `AGGAAGCAAUAUUACGGAGC` , give its reported self-splicing fitness (ln).
**A:** -2.78

**Q:** Answer with the recorded self-splicing fitness (ln) for the sequence listed here: `CCUAAGCAAUAUUACGUCAU`
**A:** -4.09

**Q:** Respond only with self-splicing fitness (ln) recorded for `UGCGAGCAAUAUUACGAUCU`
**A:** -1.84

**Q:** Give reported self-splicing fitness (ln) value for `AAAUAGCAAUAUUACGGACC`
**A:** -1.57

**Q:** Please report self-splicing fitness (ln) for the following sequence: `AAGGAGCAAUAUUACGUAAC`
**A:** -3.28

**Q:** Look up self-splicing fitness (ln) of `CGCAAGCAAUAUUACGUGCC` and report it.
**A:** -0.772

====

# ASSAY_INFO: self-splicing fitness, log relative to wild type (ln ratio); higher = more splicing; Tetrahymena group I intron in knt gene, E. coli kanamycin selection, DiMSum; sequences stand for … in CUCUCU…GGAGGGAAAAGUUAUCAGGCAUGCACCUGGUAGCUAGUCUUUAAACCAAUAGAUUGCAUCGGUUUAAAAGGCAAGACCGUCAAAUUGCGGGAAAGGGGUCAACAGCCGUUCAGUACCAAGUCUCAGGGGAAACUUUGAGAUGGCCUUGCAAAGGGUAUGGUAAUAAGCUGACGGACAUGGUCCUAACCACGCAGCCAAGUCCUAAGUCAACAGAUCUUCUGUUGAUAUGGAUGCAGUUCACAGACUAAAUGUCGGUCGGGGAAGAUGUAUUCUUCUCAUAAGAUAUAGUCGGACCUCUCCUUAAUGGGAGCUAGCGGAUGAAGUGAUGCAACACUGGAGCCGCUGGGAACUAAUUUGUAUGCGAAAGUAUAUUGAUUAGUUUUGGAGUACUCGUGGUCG
# RUN_PARAMETERS: 37 °C
Could you please report measured self-splicing fitness (ln) for the items listed next?

**Q:** Supply recorded self-splicing fitness (ln) for `CGUCAGCAAUAUUACGGACC` here.
**A:** 0.292

**Q:** Return reported self-splicing fitness (ln). Input sequence: `UAGCAGCAAUAUUACGGAGC`
**A:** -1.74

**Q:** Return self-splicing fitness (ln) (reported value) for this sequence: `GCCCAGCAAUAUUACGGGCC`
**A:** -2.58

**Q:** Tell me self-splicing fitness (ln) reported for `GCAUAGCAAUAUUACGCUAA`
**A:** -2.49

**Q:** For the sequence `UGCCAGCAAUAUUACGCAGG` , give its reported self-splicing fitness (ln).
**A:** -3.14

**Q:** Complete the entry with self-splicing fitness (ln) for `UGCGAGCAAUAUUACGUACC`
**A:** -2.75

**Q:** Look up self-splicing fitness (ln) of `AGGGAGCAAUAUUACGCCAA` and report it.
**A:** -2.67

**Q:** Using the record for `CAUCAGCAAUAUUACGCAUA` , state its measured self-splicing fitness (ln).
**A:** -0.647

**Q:** # return recorded self-splicing fitness (ln) for input `CUCCAGCAAUAUUACGCGUU`
**A:** -2.01

**Q:** Read off the recorded self-splicing fitness (ln) for `UUGGAGCAAUAUUACGCUAU`
**A:** -1.93

**Q:** Supply measured self-splicing fitness (ln) of `UGUAAGCAAUAUUACGGUUC` in your reply.
**A:** -2.92

**Q:** Read off the recorded self-splicing fitness (ln) for `GACAAGCAAUAUUACGGUUC`
**A:** -2.81

**Q:** Supply self-splicing fitness (ln) value. Item: `UUUCAGCAAUAUUACGAAGG`
**A:** -2.34

**Q:** Query self-splicing fitness (ln) for `AAACAGCAAUAUUACGCCAG`
**A:** -2.11

**Q:** Answer with the recorded self-splicing fitness (ln) of `GGCCAGCAAUAUUACGGUAG` only.
**A:** 0.303

**Q:** Identify the reported self-splicing fitness (ln) for the following entry. `GUCAAGCAAUAUUACGUUAC`
**A:** -2.96

**Q:** Report measured self-splicing fitness (ln); entry is `UCGGAGCAAUAUUACGGAUU`
**A:** -2.85

**Q:** Quick one: give measured self-splicing fitness (ln) for `UCUUAGCAAUAUUACGAUGG`
**A:** 0.551

**Q:** Indicate its recorded self-splicing fitness (ln); the sequence in question is `GAAAAGCAAUAUUACGGAAA`
**A:** -1.55

**Q:** Hello, please tell me recorded self-splicing fitness (ln) for this one: `AGUAAGCAAUAUUACGCAUA`
**A:** -1.38

**Q:** Read the entry `CCCCAGCAAUAUUACGGGUA` and write its reported self-splicing fitness (ln).
**A:** -1.25

**Q:** Output measured self-splicing fitness (ln) for this item: `UAGUAGCAAUAUUACGGUGG`
**A:** -2.09

**Q:** Tell me measured self-splicing fitness (ln) for `UAAUAGCAAUAUUACGGAAG` please.
**A:** -0.76

**Q:** Identify the reported self-splicing fitness (ln) for the following entry. `UCAGAGCAAUAUUACGACUG`
**A:** -0.645

**Q:** Tell me measured self-splicing fitness (ln) for `CCCCAGCAAUAUUACGUCUU` please.
**A:** -2.04

**Q:** Give the value of self-splicing fitness (ln) reported for the following: `AACAAGCAAUAUUACGUGUC`
**A:** -2.96

**Q:** Tell me its self-splicing fitness (ln) given `CCGUAGCAAUAUUACGUUAU` as the entry.
**A:** -2.35

**Q:** For the sequence `GGUCAGCAAUAUUACGAGGC` , give its reported self-splicing fitness (ln).
**A:** -2.84

**Q:** Specify self-splicing fitness (ln) for `AUGGAGCAAUAUUACGGUAA` and stop.
**A:** -1.08

**Q:** Return the recorded self-splicing fitness (ln) value; entry: `UGUCAGCAAUAUUACGCGUU`
**A:** -0.631

**Q:** Note self-splicing fitness (ln) for the sequence shown: `GUGAAGCAAUAUUACGAUAC`
**A:** -0.461

**Q:** Specify self-splicing fitness (ln) for `CCGUAGCAAUAUUACGGCCA` and stop.
**A:** -2.19

**Q:** Answer with reported self-splicing fitness (ln) of `AUCAAGCAAUAUUACGAGGC`
**A:** -2.57

**Q:** Please indicate self-splicing fitness (ln) recorded for `UGGCAGCAAUAUUACGCUAG`
**A:** -0.514

**Q:** Dear colleague, please send me the reported self-splicing fitness (ln) for `UCCUAGCAAUAUUACGCUCA` when you can.
**A:** -2.48

**Q:** Look up and state reported self-splicing fitness (ln) for `CCUAAGCAAUAUUACGUAAU`
**A:** -0.984

**Q:** Indicate its recorded self-splicing fitness (ln); the sequence in question is `GUAGAGCAAUAUUACGGCGU`
**A:** 0.0227

**Q:** Tell us which self-splicing fitness (ln) value is on record for `GUACAGCAAUAUUACGCCGU`
**A:** -1.06

**Q:** Give a short answer stating reported self-splicing fitness (ln) for `AGCUAGCAAUAUUACGACCA` .
**A:** -0.124

**Q:** Give the measured self-splicing fitness (ln) for `GUUCAGCAAUAUUACGAGAG`
**A:** -0.725

**Q:** Find the measured self-splicing fitness (ln) of `GCAGAGCAAUAUUACGGCAA` and report it.
**A:** -3.6

**Q:** For the sequence `UGCAAGCAAUAUUACGACGG` , give its reported self-splicing fitness (ln).
**A:** -0.946

**Q:** Dear colleague, please send me the reported self-splicing fitness (ln) for `AUGUAGCAAUAUUACGGAAG` when you can.
**A:** -2.01

**Q:** Kindly indicate its recorded self-splicing fitness (ln). Item: `AAACAGCAAUAUUACGGUCU`
**A:** -0.161

**Q:** Recall and state the measured self-splicing fitness (ln) for `CACUAGCAAUAUUACGGACU` .
**A:** -1.13

**Q:** Output self-splicing fitness (ln) of `UCACAGCAAUAUUACGUAAU`
**A:** -2.54

**Q:** Give recorded self-splicing fitness (ln). `CAUAAGCAAUAUUACGUUUU`
**A:** -2.54

**Q:** Check the records and state self-splicing fitness (ln) for `GUAGAGCAAUAUUACGUCCU`
**A:** -0.4

**Q:** Check the records and state self-splicing fitness (ln) for `AGAGAGCAAUAUUACGCUAC`
**A:** -2.33

**Q:** Return self-splicing fitness (ln) (reported value) for this sequence: `CAAGAGCAAUAUUACGCGUU`
**A:** -3.05

**Q:** Supply measured self-splicing fitness (ln) of `AACGAGCAAUAUUACGCUAU` in your reply.
**A:** -2.18

**Q:** Report measured self-splicing fitness (ln); entry is `AAUCAGCAAUAUUACGGCGG`
**A:** 0.206

**Q:** Indicate the recorded self-splicing fitness (ln) value for this sequence: `CAAGAGCAAUAUUACGCUCG`
**A:** -1.26

**Q:** Note down self-splicing fitness (ln) recorded for `UUAGAGCAAUAUUACGCGAA`
**A:** -0.155

**Q:** Quote self-splicing fitness (ln) reported for `CGCAAGCAAUAUUACGAAGA` please.
**A:** -1.73

**Q:** Quickly give me recorded self-splicing fitness (ln) for `CGGUAGCAAUAUUACGACUA`
**A:** 0.0316

**Q:** Input `CUUCAGCAAUAUUACGUUAG` , output reported self-splicing fitness (ln).
**A:** -1.25

**Q:** Dear colleague, please send me the reported self-splicing fitness (ln) for `UCCAAGCAAUAUUACGGUUG` when you can.
**A:** -3.04

**Q:** Kindly indicate its recorded self-splicing fitness (ln). Item: `GUUCAGCAAUAUUACGUCAU`
**A:** -0.0298

**Q:** Answer with reported self-splicing fitness (ln) of `UAAUAGCAAUAUUACGCAAC`
**A:** -1.73

**Q:** Tell us which self-splicing fitness (ln) value is on record for `UCUCAGCAAUAUUACGUGGU`
**A:** -2.48

**Q:** Tell me self-splicing fitness (ln) reported for `GGUAAGCAAUAUUACGUAUA`
**A:** -1.68

**Q:** Name the recorded self-splicing fitness (ln) of the sequence listed here: `UAAUAGCAAUAUUACGCGCU`
**A:** -0.565

**Q:** Provide one value: measured self-splicing fitness (ln) of `GCCCAGCAAUAUUACGUCGG`
**A:** -3.08

**Q:** Return self-splicing fitness (ln) (reported value) for this sequence: `ACUCAGCAAUAUUACGCGAG`
**A:** -1.21

**Q:** Look up self-splicing fitness (ln) of `GUCAAGCAAUAUUACGACUC` and report it.
**A:** -0.881

**Q:** Input `CAAAAGCAAUAUUACGGCCC` , output reported self-splicing fitness (ln).
**A:** -1.06

The origin of these recorded values is the supplement of paper PMC7877785.
